Where do these numbers come from? They come from the supplement of paper PMC10567573.

# Lookup of reported protein stability index keyed by entry
B1: RAB40B (parent)
chain: YSLTTSSTHKRSSLRKVKLVRPPQ

Variants of: B1
Assay: protein stability index of a GFP-peptide fusion (GPS, HEK-293T) (PSI 1-6); higher = more stable;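 further: lentivirally expressed fusions sorted by FACS into six bins by GFP to DsRed ratio, PSI derived from sequencing read proportions per bin multiplied by bin number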
Conditions: c terminus: a fixed tail appended

biopolymer sequence: YSLMTSSTHKRSSLRKVKLVRPPQ [T4M]
protein stability index: 2.55

biopolymer sequence: YSLTTSSNHKRSSLRKVKLVRPPQ [T8N]
protein stability index: 3.4

biopolymer sequence: YSLTTSSTHKRSSLRKVKLQRPPQ [V20Q]
protein stability index: 3.09

biopolymer sequence: YSLTTSSTHKRSSLRKVKLWRPPQ [V20W]
protein stability index: 2.22

biopolymer sequence: YSLTTSSTHKRSSLRKVKLVRPVQ [P23V]
protein stability index: 3.02

biopolymer sequence: YSLTTSSTHKRSSTRKVKLVRPPQ [L14T]
protein stability index: 3.87

biopolymer sequence: YSDTTSSTHKRSSLRKVKLVRPPQ [L3D]
protein stability index: 3.7

biopolymer sequence: YSLTTSSTHKRSSLRKVKYVRPPQ [L19Y]
protein stability index: 2.81

biopolymer sequence: YSLTTSSTHKFSSLRKVKLVRPPQ [R11F]
protein stability index: 2.32

biopolymer sequence: YSLTTSSTHKRYSLRKVKLVRPPQ [S12Y]
protein stability index: 2.85

biopolymer sequence: YSLTTSSDHKRSSLRKVKLVRPPQ [T8D]
protein stability index: 3.32

biopolymer sequence: YSLTTWSTHKRSSLRKVKLVRPPQ [S6W]
protein stability index: 2.17

biopolymer sequence: LSLTTSSTHKRSSLRKVKLVRPPQ [Y1L]
protein stability index: 3.15

biopolymer sequence: YSLTTSSTHKRSSLRKVKLVRPPM [Q24M]
protein stability index: 2.49

biopolymer sequence: YSLTTSSTHKRSNLRKVKLVRPPQ [S13N]
protein stability index: 3.21

biopolymer sequence: YSLTYSSTHKRSSLRKVKLVRPPQ [T5Y]
protein stability index: 2.53

biopolymer sequence: YELTTSSTHKRSSLRKVKLVRPPQ [S2E]
protein stability index: 3.12

biopolymer sequence: YSLTTSNTHKRSSLRKVKLVRPPQ [S7N]
protein stability index: 2.98

biopolymer sequence: YSLTTSSTHKRSSIRKVKLVRPPQ [L14I]
protein stability index: 3.37

biopolymer sequence: YSLTTSSTHKRSSHRKVKLVRPPQ [L14H]
protein stability index: 3.46

biopolymer sequence: ISLTTSSTHKRSSLRKVKLVRPPQ [Y1I]
protein stability index: 3.15

biopolymer sequence: YSLTTSSTSKRSSLRKVKLVRPPQ [H9S]
protein stability index: 3.42
